system: primary human T-cells; assay: Proliferation assay after 5 days (CellTiter-Glo, CD3 stimulation; PBS counter screen); type: cell-based; conditions: Homo sapiens, T-cell, 120 h, primary human T-cells, CD3 stimulation, CellTiter-Glo after 5 days; EC50 of fitted sigmoidal curve; read-out: Tcell Proliferation CD3 EC50
Each item that follows carries a reported pEC50.
Answer as the number alone; pEC50 is minus log10 of concentration in mol/L.

For orientation, consider the following solved cases.
CN(C)C(=O)c1nc(-c2cc3c(cc2F)S(=O)(=O)C[C@H](N)C(=O)N3Cc2ccc(Cl)cc2)no1 = 5.30
N[C@H]1CS(=O)(=O)c2cc(F)c(-c3nnc(C4CNCCC4(F)F)o3)cc2N(Cc2ccc(Cl)cc2)C1=O (some centres unmarked) = 5.38
C#CC1(Nc2nnc(-c3cc4c(cc3F)S(=O)(=O)C[C@H](N)C(=O)N4Cc3ccc(Cl)cc3)o2)CCCCC1 = 6.06
CC(C)(C)c1nnc(-c2cc3c(cc2F)S(=O)(=O)C[C@H](N)C(=O)N3Cc2ccc(OCCO)cc2)o1 = 5.92
Cc1ccc(-c2nnc(-c3ccc4c(c3)N(Cc3ccc(Cl)cc3)C(=O)[C@@H](N)CS4(=O)=O)o2)cn1 = 5.35
COC(=O)N1CC2CC(c3nc(-c4cc5c(cc4F)S(=N)(=O)C[C@H](N)C(=O)N5Cc4ccc(OC(F)(F)C(F)F)cc4)no3)(C2)C1 (some centres unmarked) = 6.57

Result for N[C@H]1CS(=O)(=O)c2ccc(-c3nnc(N4CC(CO)(CCl)C4)o3)cc2N(Cc2ccc(Cl)cc2)C1=O , tested on primary human T-cells, pEC50: 5.28

// returns pEC50 for COC(=O)N1CCC(c2nnc(-c3ccc4c(c3)N(Cc3ccc(OC(F)(F)F)cc3)C(=O)[C@@H](N)CS4(=O)=O)o2)C1 (some centres unmarked) with primary human T-cells; value = 5.76

* * *

system: primary human T-cells; assay: Proliferation assay after 5 days (CellTiter-Glo, CD3 stimulation; PBS counter screen); format: cell-based; conditions: Homo sapiens, T-cell, 120 h, CD3 stimulation, 5 days; normalized to reference compound A1 as stimulator control = 100%, DMSO neutral control; read-out: Emax proliferation (% activation)
Measured Emax, listed per entry for reference.

N[C@H]1CS(=O)(=O)c2cc(F)c(-c3nnc(CC(F)(F)F)o3)cc2N(Cc2ccc(Cl)cc2)C1=O = 91%
COC(=O)N1CCC(C)(c2nc(-c3cc4c(cc3F)S(=O)(=O)C[C@H](N)C(=O)N4Cc3ccc(Cl)cc3)no2)CC1 = 143%
N[C@H]1CS(=O)(=O)c2ccc(-c3nnc(N4CCOC(F)(F)C4)o3)cc2N(Cc2ccc(Cl)cc2)C1=O = 157%
COC(=O)N1CCC(C#N)(c2nnc(-c3ccc4c(c3)N(Cc3ccc(Cl)cc3)C(=O)[C@@H](N)CS4(=O)=O)o2)CC1 = 80%
CC(C)(C)c1noc(-c2cc3c(cc2F)S(=O)(=O)C[C@H](N)C(=O)N3Cc2ccc(Cl)cc2)n1 = 143%
CC(N)(c1nnc(-c2ccc3c(c2)N(Cc2ccc(Cl)cc2)C(=O)[C@@H](N)CS3(=O)=O)o1)C(F)(F)F (some centres unmarked) = 84%
COC(F)(c1nc(-c2cc3c(cc2F)S(=N)(=O)C[C@H](N)C(=O)N3Cc2ccc(Cl)cc2)no1)C(F)(F)F (some centres unmarked) = 63%
CC(C)(C)c1nnc(-c2cc3c(cc2F)S(=O)(=O)C[C@H](N)C(=O)N3Cc2ccc(OC(F)F)cc2)o1 = 128%

Record CC(=O)N1CC2CC(c3nnc(-c4cc5c(cc4F)S(=O)(=O)C[C@H](N)C(=O)N5Cc4ccc(Cl)cc4)o3)(C2)C1 . Reported Emax: 89%

Memo: CC(O)(c1nc(-c2cc3c(cc2F)S(=O)(=O)C[C@H](N)C(=O)N3Cc2ccc(Cl)cc2)no1)C(F)(F)F (some centres unmarked) , reported Emax: 113%

The compound listed as CC(C)(C)c1nnc(-c2ccc3c(c2)N(Cc2ccc(OCC4CCOCC4)cc2)C(=O)[C@@H](N)CS3(=O)=O)o1 shows Emax equal to 105%

N[C@H]1CS(=O)(=O)c2cc(F)c(-c3nnc(-c4ccc(F)nc4)o3)cc2N(Cc2ccc(Cl)cc2)C1=O yielded Emax of 34%

Entry Cc1ccncc1-c1nc(-c2cc3c(cc2F)S(=O)(=O)C[C@H](N)C(=O)N3Cc2ccc(Cl)cc2)no1 ; Emax = 90%

The compound N[C@H]1CS(=O)(=O)c2ccc(-c3nnc(-c4ccccc4F)o3)cc2N(Cc2ccc(Cl)cc2)C1=O showed Emax equal to 70%

* * *

test system: primary human T-cells; assay: Proliferation assay after 5 days (CellTiter-Glo, CD3 stimulation; PBS counter screen); assay type: cell-based; details: Homo sapiens, T-cell, 120 h, primary human T-cells, CD3 stimulation, CellTiter-Glo after 5 days; EC50 of fitted sigmoidal curve; read-out: Tcell Proliferation CD3 EC50
Recorded pEC50 for the following molecules
Notebook: values listed as pEC50 are -log10 of the concentration (mol/L).

Examples with their reported pEC50 follow.
CC1(c2nnc(-c3cc4c(cc3F)S(=O)(=O)C[C@H](N)C(=O)N4Cc3ccc(Cl)cc3)o2)CCNCC1 = 5.26
CN1CC(c2nnc(-c3cc4c(cc3F)S(=O)(=O)C[C@H](N)C(=O)N4Cc3ccc(Cl)cc3)o2)CC(F)(F)C1 (stereo partly shown) = 6.95
CC(=O)N1CC(c2nnc(-c3cc4c(cc3F)S(=O)(=O)C[C@H](N)C(=O)N4Cc3ccc(Cl)cc3)o2)C2(CC2)C1 (stereo partly shown) = 5.15

Pending molecule:
Value of pEC50 reported for the molecule CCc1nc(-c2cc3c(cc2F)S(=O)(=O)C[C@H](N)C(=O)N3Cc2ccc(Cl)cc2)no1 is 6.13

* * *

// primary human T-cells EC50 records
Report the figure in nM without appending any unit label.

CC(C)(C)c1nnc(-c2cc3c(cc2F)S(=O)(=O)C[C@H](N)C(=O)N3Cc2ccc(F)c(F)c2)o1 = 342
N[C@H]1CS(=O)(=O)c2cc(F)c(-c3nnc(-c4ccccc4F)o3)cc2N(Cc2ccc(Cl)cc2)C1=O = 498

// sample CC(C)(C)c1nc(-c2cc3c(cc2F)S(=O)(=O)C[C@H](N)C(=O)N3Cc2ccc(OCC3CCOCC3)cc2)no1 , its EC50 was 3250

Consider N[C@H]1CS(=O)(=O)c2cc(F)c(-c3nnc(NC4(CCO)CCCCC4)o3)cc2N(Cc2ccc(Cl)cc2)C1=O . Its measured EC50 is 2600

The molecule listed as N[C@H]1CS(=O)(=O)c2ccc(-c3nnc(C4(C5CC5)CCCO4)o3)cc2N(Cc2ccc(Cl)cc2)C1=O (stereo partly shown) shows EC50 equal to 2400

COC(F)(c1nc(-c2cc3c(cc2F)S(=O)(=O)C[C@H](N)C(=O)N3Cc2ccc(F)cc2)no1)C(F)(F)F (stereo partly shown) yielded EC50 of 307

For record CC(C)(C)c1nnc(-c2cc3c(cc2F)S(=O)(=O)C[C@H](N)C(=O)N3Cc2ccc(Oc3ccccc3)cc2)o1 the listed EC50 is 95

* * *

System: primary human T-cells | Read-out: pEC50
Scale for pEC50: -log10 of concentration given in mol/L; no unit attached.

Reference set, count: 4
CC(C)(CNC1COC1)c1nnc(-c2cc3c(cc2F)S(=O)(=O)C[C@H](N)C(=O)N3Cc2ccc(Cl)cc2)o1 = 5.48
NC(c1nc(-c2cc3c(cc2F)S(=O)(=O)C[C@H](N)C(=O)N3Cc2ccc(OC(F)(F)F)cc2)no1)C(F)(F)F (some centres unmarked) = 6.70
Cc1cccc(F)c1-c1nnc(-c2cc3c(cc2F)S(=O)(=O)C[C@H](N)C(=O)N3Cc2ccc(Cl)cc2)o1 = 6.31
CC(C)(C)c1nnc(-c2ccc3c(c2)N(Cc2ccc(Oc4ccccc4)cc2)C(=O)[C@@H](N)CS3(=O)=O)o1 = 6.15

Observed pEC50 on primary human T-cells, entry N[C@H]1CS(=O)(=O)c2cc(F)c(-c3nnc(NC4CCC(F)(F)C4)o3)cc2N(Cc2ccc(Cl)cc2)C1=O (some centres unmarked) , equals 6.22

Param item: CC(C)(C)c1nnc(-c2cc3c(cc2F)[S+]([O-])C[C@H](N)C(=O)N3Cc2ccc(OC(F)(F)F)cc2)o1 (some centres unmarked) [Example 453] ; param system: primary human T-cells; output pEC50: 6.75

Value (pEC50, primary human T-cells) for record N[C@H]1CS(=O)(=O)c2cc(F)c(-c3nnc(NC4CCCC4)o3)cc2N(Cc2ccc(Cl)cc2)C1=O = 6.65

// compound CC(=O)N1CC(n2nnc(-c3cc4c(cc3F)S(=O)(=O)C[C@H](N)C(=O)N4Cc3ccc(Cl)cc3)n2)CC(F)(F)C1 (some centres unmarked) , assay primary human T-cells, pEC50 value: 5.18

Summary line: CC1(C)CN(c2nnc(-c3cc4c(cc3F)S(=O)(=O)C[C@H](N)C(=O)N4Cc3ccc(Cl)cc3)o2)CCO1 , primary human T-cells, reported pEC50 = 5.58

Summary line: Cc1ccc(-c2nnc(-c3cc4c(cc3F)S(=O)(=O)C[C@H](N)C(=O)N4Cc3ccc(Cl)cc3)o2)cn1 , primary human T-cells, reported pEC50 = 5.93

Kindly note: primary human T-cells, CC(C)(C)c1nnc(-c2ccc3c(c2)N(Cc2ccc(C(C)(C)C#N)cc2)C(=O)[C@@H](N)CS3(=O)=O)o1 , pEC50 value reported: 5.85

pEC50 for primary human T-cells with input CS(=O)(=O)N1CCC2CC2(c2nnc(-c3cc4c(cc3F)S(=O)(=O)C[C@H](N)C(=O)N4Cc3ccc(Cl)cc3)o2)C1 (some centres unmarked) equals 6.48

Lab note: compound N[C@H]1CS(=O)(=O)c2ccc(-c3nnc(C(F)(F)C(F)(F)F)o3)cc2N(Cc2ccc(OC(F)(F)F)cc2)C1=O tested on primary human T-cells; recorded pEC50 was 6.35
